biological target: isolated recombinant JAK2 kinase domain (Homo sapiens (Human), UniProt O60674); test: JAK2 enzyme assay (Caliper LabChip, Ki); type: biochemical; details: isolated recombinant JAK2 kinase domain, 0.2 nM enzyme, ATP 25 μM
Sequence (O60674 849-1124): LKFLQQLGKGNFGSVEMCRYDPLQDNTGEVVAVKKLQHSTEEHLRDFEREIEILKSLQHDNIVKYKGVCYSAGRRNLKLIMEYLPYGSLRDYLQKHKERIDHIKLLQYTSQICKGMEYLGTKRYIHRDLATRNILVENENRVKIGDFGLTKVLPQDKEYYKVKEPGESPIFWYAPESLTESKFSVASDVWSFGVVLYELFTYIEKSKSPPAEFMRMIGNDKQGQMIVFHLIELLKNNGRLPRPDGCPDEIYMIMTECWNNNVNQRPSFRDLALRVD
propertyMeasured: log10 of Ki (log10 of the value in nM)
Give log10 of Ki, with Ki taken in nM.

(Q) Could you tell me which log10 of Ki is on file for CSCCN1CCN(C(=O)Cn2cc(Nc3nc4c(N5CC6CCC(C5)N6C(=O)N5CC(C(F)(F)F)C5)cccn4n3)cn2)CC1 [Example 186] ?
(A) -0.70

(Q) Could you tell me which log10 of Ki is on file for O=C(Cn1cc(Nc2nc3c(N4CC5CCC(C4)N5C(=O)N4CC(C(F)(F)F)C4)cccn3n2)cn1)N1CCN(C2COC2)CC1 [Example 194] ?
(A) -0.40

(Q) Could you tell me which log10 of Ki is on file for O=C(Cn1cc(Nc2nc3c(N4CC5CCC(C4)N5C(=O)N4CC(C(F)(F)F)C4)cccn3n2)cn1)N1CCN(C2CCOCC2)CC1 [Example 39] ?
(A) -0.40

(Q) Could you tell me which log10 of Ki is on file for CC(C(=O)N1CCN(C)CC1)n1cc(Nc2nc3c(N4CC5CCC(C4)N5C(=O)C4CC(C(F)(F)F)C4)cccn3n2)cn1 (stereo not shown) [Example 123] ?
(A) -0.30

(Q) Could you tell me which log10 of Ki is on file for O=C(Cn1cc(Nc2nc3c(N4CC5CCC(C4)N5C(=O)CCC(F)(F)F)cccn3n2)cn1)N1CCN(C2CCOCC2)CC1 [Example 10] ?
(A) 0.08

(Q) Could you tell me which log10 of Ki is on file for CN1CCN(C(=O)Cn2cc(Nc3nc4c(N5CC6CCC(C5)N6C(=O)C5(C#N)CCCC5)cccn4n3)cn2)CC1 [Example 155] ?
(A) 1.32

(Q) Could you tell me which log10 of Ki is on file for CN1CCN(C(=O)Cn2cc(Nc3nc4c(N5CC6CCC(C5)N6S(=O)(=O)c5ccc(F)cc5)cccn4n3)cn2)CC1 [Example 134] ?
(A) -0.30

(Q) Could you tell me which log10 of Ki is on file for CN1CCN(C(=O)Cn2cc(Nc3nc4c(N5CC6CCC(C5)N6S(=O)(=O)CCCC(F)(F)F)cccn4n3)cn2)CC1 [Example 174] ?
(A) 0.04

(Q) Could you tell me which log10 of Ki is on file for CCc1cnn([C@@]2(CC#N)[C@@H]3CC[C@H]2CN(c2cccn4nc(Nc5cnn(CC(=O)N6CCN(C)CC6)c5)nc24)C3)c1 [Example 117] ?
(A) 1.38

(Q) Could you tell me which log10 of Ki is on file for O=C(Cn1cc(Nc2nc3c(N4CC5CCC(C4)N5C(=O)CCC(F)(F)F)cccn3n2)cn1)N1CCN(C2CCCCC2)CC1 [Example 153] ?
(A) -0.52

Continuing:
(Q) Could you tell me which log10 of Ki is on file for CN1CCN(C(=O)Cn2cc(Nc3nc4c(N5CC6CCC(C5)N6C(=O)COCC(F)(F)F)cccn4n3)cn2)CC1 [Example 45] ?
(A) 0.54

(Q) Could you tell me which log10 of Ki is on file for CN(C1CCN(C(=O)Cn2cc(Nc3nc4c(N5CC6CCC(C5)N6C(=O)CCC(F)(F)F)cccn4n3)cn2)CC1)C1COC1 [Example 11] ?
(A) 0.15

(Q) Could you tell me which log10 of Ki is on file for CN(C1CCN(C(=O)Cn2cc(Nc3nc4c(N5CC6CCC(C5)N6C(=O)N5CC(C(F)(F)F)C5)cccn4n3)cn2)CC1)C1COC1 [Example 62] ?
(A) -0.30
